assay: Cytotoxicity against mouse RAW 264.7 assessed as cell viability at 20 uM incubated for 24 hrs by MTT assay (reference value: 100%); format: cell-based, RAW264.7; conditions: RAW 264.7 cells, read-out: Activity
Decide using viability at 24 h, 20 µM alone. Strictly below 80%: yes (1). Equal to or above 80%: no (0).

Answered cases to consult:
INSERT INTO assay_data (molsmiles, classlabel) VALUES
  ('Cc1ccc(-c2nc(-c3ccc4[nH]ccc4c3)no2)cc1', 'yes (1)'),
  ('c1ccc(-c2nc(-c3ccc4ccccc4c3)no2)cc1', 'no (0)'),
  ('c1cc2cc(-c3noc(C4CCC4)n3)ccc2[nH]1', 'no (0)');

Just wondering, is viability at 24 h, 20 µM of c1ccc(-c2nc(-c3cnccn3)no2)cc1 below 80%?
yes (1)
